# measurement.target: VLP2 (virus-like particles, capsid protein particles of AAV serotype 2) (AAV serotype 2 (AAV2)) (UniProt P03135)
# Sequence (P03135 whole entry): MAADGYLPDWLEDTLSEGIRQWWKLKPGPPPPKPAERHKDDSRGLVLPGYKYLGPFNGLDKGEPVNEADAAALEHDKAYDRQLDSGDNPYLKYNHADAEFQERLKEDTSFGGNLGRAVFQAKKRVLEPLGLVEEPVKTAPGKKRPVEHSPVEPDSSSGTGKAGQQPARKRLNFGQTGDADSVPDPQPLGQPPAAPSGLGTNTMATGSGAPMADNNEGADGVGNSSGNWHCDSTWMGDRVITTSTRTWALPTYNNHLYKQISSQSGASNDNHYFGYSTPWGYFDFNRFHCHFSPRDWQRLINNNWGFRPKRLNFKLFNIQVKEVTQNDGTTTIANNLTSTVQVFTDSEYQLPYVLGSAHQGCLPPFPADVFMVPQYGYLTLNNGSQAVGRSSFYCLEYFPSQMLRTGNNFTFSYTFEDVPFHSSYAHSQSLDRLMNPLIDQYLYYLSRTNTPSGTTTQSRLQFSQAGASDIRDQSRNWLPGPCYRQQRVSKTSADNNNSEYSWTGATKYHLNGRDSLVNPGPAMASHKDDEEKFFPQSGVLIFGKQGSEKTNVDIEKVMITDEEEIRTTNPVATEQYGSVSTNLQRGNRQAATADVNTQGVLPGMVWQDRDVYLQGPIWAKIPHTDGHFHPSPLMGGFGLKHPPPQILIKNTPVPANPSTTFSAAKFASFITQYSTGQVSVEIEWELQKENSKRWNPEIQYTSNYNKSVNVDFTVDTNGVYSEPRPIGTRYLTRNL
# measurement.description: ELISA on immobilised VLP2 (purified protein, 5 µg/mL); A450 after 1:1 1 M NaOH with 1 mM CaCl2, 30°C, 30 min divided by A450 at 0 time
# maps each entry to its Remaining activity [%]

Solved cases (3 shown):
binder: AVR27c (AVR25c with V394A, T474R) (receptor) MGSAGESDQITLPKHEAQLKVYVLLVPPKGEASTYDWQLITHPRDYSGEMEGEHSQILKLSNLTPGLYEYRAVVEGQNAHSEGYANVTVEPGPRKNRPPIAIVSPQFQEISLPTTSAVIDGSQSTDDDKIVQYHWEELKGPLREEKISEDTPILKLSNLVPGNYRFRLTVVDTDGATDSTTADLTVNKAVDHHHHHH
Remaining activity [%]: 13.6%
//
binder: AVR27b (AVR25c with I366F, T474R) (receptor) MGSAGESDQITLPKHEAQLKVYVLLVPPKGEASTYDWQLITHPRDYSGEMEGEHSQFLKLSNLTPGLYEYRAVVEGQNAHSEGYVNVTVEPGPRKNRPPIAIVSPQFQEISLPTTSAVIDGSQSTDDDKIVQYHWEELKGPLREEKISEDTPILKLSNLVPGNYRFRLTVVDTDGATDSTTADLTVNKAVDHHHHHH
Remaining activity [%]: 17.1%
//
binder: AVR27d (AVR25c with K455R, T474R) (receptor) MGSAGESDQITLPKHEAQLKVYVLLVPPKGEASTYDWQLITHPRDYSGEMEGEHSQILKLSNLTPGLYEYRAVVEGQNAHSEGYVNVTVEPGPRKNRPPIAIVSPQFQEISLPTTSAVIDGSQSTDDDKIVQYHWEELKGPLREERISEDTPILKLSNLVPGNYRFRLTVVDTDGATDSTTADLTVNKAVDHHHHHH
Remaining activity [%]: 15.8%

Could you now look at the following binder, please?
Just so you know, measured Remaining activity [%] for AVR25c (AVR25a with K467N) (receptor) MGSAGESDQITLPKHEAQLKVYVLLVPPKGEASTYDWQLITHPRDYSGEMEGEHSQILKLSNLTPGLYEYRAVVEGQNAHSEGYVNVTVEPGPRKNRPPIAIVSPQFQEISLPTTSAVIDGSQSTDDDKIVQYHWEELKGPLREEKISEDTPILKLSNLVPGNYTFRLTVVDTDGATDSTTADLTVNKAVDHHHHHH came out at 5.28%
